Tested on: MGC-803
testName: Cytotoxicity against human MGC803 cells after 72 hrs by MTT assay
Type: functional, cell-based
testParameters: MGC-803, 72 h
Task for the reader: assign each of the following compounds its reported IC50.
Answers are plain numbers, in nM.

lineNotation | measureUnit | IC50
O=C(N[C@@H](Cc1ccc2ccccc2c1)C(=O)N1CCC[C@H]1B(O)O)[C@H](Cc1ccccc1)NC(=O)N1CCc2ccccc2C1 | nM | 2420

input: Give me measured IC50, please, for this compound: CC(C)C[C@H](NC(=O)N(C)Cc1ccccc1)C(=O)N[C@@H](Cc1ccc2ccccc2c1)C(=O)N1CCC[C@H]1B(O)O
output: 1650

###

Tested on: MGC-803
testName: Cytotoxicity against human MGC803 cells after 72 hrs by MTT assay
Type: functional, cell-based
testParameters: MGC-803, 72 h
Provide the recorded log10 IC50 for the entries that follow.
Values reflect log10 of reported IC50 (nM).

lineNotation | target | log10 IC50
CC(C)C[C@H](NC(=O)OCc1ccccc1)C(=O)N[C@@H](CC(C)C)C(=O)N1CCC[C@H]1B(O)O | MGC-803 | 1.04
CC(C)C[C@H](NC(=O)c1cnccn1)C(=O)N[C@@H](Cc1ccc2ccccc2c1)C(=O)N1CCC[C@H]1B(O)O | MGC-803 | 1.47
O=C(N[C@@H](Cc1ccc2ccccc2c1)C(=O)N1CCC[C@H]1B(O)O)N1CCc2ccccc2C1 | MGC-803 | 3.73
O=C(N[C@@H](Cc1ccccc1)C(=O)N[C@@H](Cc1ccc2ccccc2c1)C(=O)N1CCC[C@H]1B(O)O)OCc1ccccc1 | MGC-803 | 2.18
CN(Cc1ccccc1)C(=O)N[C@@H](Cc1ccc2ccccc2c1)C(=O)N1CCC[C@H]1B(O)O | MGC-803 | 3.87
O=C(N[C@@H](Cc1ccccc1)C(=O)N[C@@H](Cc1ccc2ccccc2c1)C(=O)N1CCC[C@H]1B(O)O)c1cnccn1 | MGC-803 | 2.04
CC(C)C[C@H](NC(=O)c1cnccn1)C(=O)N[C@@H](CC(C)C)C(=O)N1CCC[C@H]1B(O)O | MGC-803 | 3.65
CC(C)C[C@H](NC(=O)N1CCc2ccccc2C1)C(=O)N[C@@H](Cc1ccc2ccccc2c1)C(=O)N1CCC[C@H]1B(O)O | MGC-803 | 3.16

Batch request: log10 IC50 per item, same order as input.
1. O=C(N[C@@H](Cc1ccccc1)C(=O)N[C@@H](Cc1ccccc1)C(=O)N1CCC[C@H]1B(O)O)c1cnccn1
2. O=C(N[C@@H](Cc1ccccc1)C(=O)N1CCC[C@H]1B(O)O)[C@H](Cc1ccccc1)NC(=O)N1CCc2ccccc2C1
3. O=C(N[C@@H](Cc1ccc(O)cc1)C(=O)N1CCC[C@H]1B(O)O)[C@H](Cc1ccccc1)NC(=O)N1CCc2ccccc2C1
4. CC(C)C[C@H](NC(=O)c1cnccn1)C(=O)N[C@@H](Cc1ccccc1)C(=O)N1CCC[C@H]1B(O)O

output:
1: 2.68; 2: 3.62; 3: 3.88; 4: 1.43

###

System: MGC-803
testName: Cytotoxicity against human MGC803 cells after 72 hrs by MTT assay
Assay type: functional, cell-based
testParameters: MGC-803, 72 h
pIC50: −log10 of the molar value.
Would you mind telling me the reported pIC50 of each entry?

Illustrative cases are given below, each with its answer.
lineNotation | resultType | valueObserved
O=C(N[C@@H](Cc1ccc2ccccc2c1)C(=O)N1CCC[C@H]1B(O)O)OCc1ccccc1 | pIC50 | < 5.00
CC(C)C[C@H](NC(=O)[C@H](Cc1ccccc1)NC(=O)N1CCc2ccccc2C1)C(=O)N1CCC[C@H]1B(O)O | pIC50 | < 5.00

Record pIC50 per entry; entries follow.
1. O=C(N[C@@H](Cc1ccccc1)C(=O)N1CCC[C@H]1B(O)O)N1CCc2ccccc2C1
2. CC(C)C[C@H](NC(=O)[C@H](Cc1ccccc1)NC(=O)c1cnccn1)B(O)O
3. O=C(N[C@@H](Cc1ccccc1)C(=O)N1CCC[C@H]1B(O)O)c1cnccn1

output:
< 5.00
7.88 to 8.10
< 5.00
